Measured GI50, listed per entry for reference.
Test system: BT-549 breast
ASSAY_PROTOCOL: NCI tumour cell line growth inhibition, 48 h
MEASURED_ENDPOINT: GI50

In [3]: df
Out[3]:
                                   compound    result
0  COc1cc(C(=O)N2CCN(c3ccccc3OC)CC2)c(N)cc1OCc1ccccc1   27.6 µM
1  CC(C)(C)c1cn2cccc(C(=O)N3CCN(CC(=O)Nc4ccc(Cl)cc4C(=O)c4ccccc4Cl)CC3)c2n1    3.8 µM
2  COc1cc(/C=C/C(=O)C(C(=O)/C=C/c2ccc(OC(=O)CCNc3nnc(C)s3)c(OC)c2)C(=O)CCNc2nnc(C)s2)ccc1OC(=O)CCNc1nnc(C)s1   2.36 µM
3  COc1cc(C(=O)/C=C/c2c(-c3ccc(F)cc3)nc3ncccn23)cc(OC)c1OC    1.8 µM
4  C/C1=C\CC[C@@]2(C)O[C@@H]2C[C@@H]2[C@H](C/C(C)=C/CC1)OC(=O)C21CCN=N1 (stereo not given in full)  > 100 µM

* * *

System: BT-549 breast
ASSAY_PROTOCOL: NCI tumour cell line growth inhibition, 48 h
MEASURED_ENDPOINT: TGI

                                    molecule    result
 0                    O=C(O)c1cncc(C(=O)O)c1  > 100 µM
 1  CC(=O)OCC1OC(n2c3c(cc(C#N)c2=S)CCCCCC3)C(OC(C)=O)C(OC(C)=O)C1OC(C)=O (centres undefined)  > 100 µM
 2         c1ccc2c(-c3nc4ccccc4[nH]3)cccc2c1     80 µM
 3  COc1cc(C2c3[nH]c4ccc(F)cc4c3C[C@H]3COC(=O)N23)cc(OC)c1O (some centres undefined)  > 100 µM
 4  COc1cc(-n2cc(-c3ccc(F)cc3)[nH]c2=S)cc(OC)c1OC  > 100 µM
 5  Cc1nc(N)c(N2CCN(Cc3ccccc3)CC2)c(=O)[nH]1  > 100 µM
 6  c1ccc(/N=N\Nc2ccc(-c3nc4ccccc4o3)cc2)nc1  > 100 µM
 7  CC(C)=CC(O)C/C(C)=C/CC/C(C)=C/CCC1(C)C(CCCO)/C(=C(/C)C=O)CCC1(C)O (centres undefined)  > 100 µM
 8  CC1(C)O[C@H]2[C@@H]3N=C(c4ccccc4)O[C@@H]3C=C[C@H]2O1  > 100 µM
 9    Cn1c(=O)c2c(ncn2CCSS(=O)(=O)O)n(C)c1=O  > 100 µM
10  C/C1=C\CC[C@@]2(C)O[C@@H]2C[C@@H]2[C@H](C/C(C)=C/CC1)OC(=O)C21CCN=N1 (some centres undefined)  > 100 µM
11  CC(=O)N1CC[N+](C)(CCCCN2c3ccccc3Sc3cc(N=[N+]=[N-])ccc32)CC1  > 100 µM
12          COc1ccccc1-c1nc2ccccc2c(=O)[nH]1  > 100 µM
13  CC(=O)[O-].[Ni].c1ccc(/C(=N\Nc2ccccn2)c2ccccn2)cc1   45.1 µM
14  COc1ccc2c(c1)C(=O)/C(=C/c1ccc([N+](=O)[O-])s1)O2  0.617 µM
15  Clc1ccc2c(c1)CC1C[N+]3=C(CCCC3)C1=C2 (centres undefined)  > 100 µM
16  O=C1N(CN2CCOCC2)CN(CN2CCOCC2)C(=O)N1Cc1ccccc1     57 µM
17  CN(C)CCCNC(=O)c1cc(NC(=O)c2cc(NC(=O)[C@H]3C[C@@H]3C(=O)Nc3cc(C(=O)Nc4cc(C(=O)NCCCN(C)C)n(C)c4)n(C)c3)cn2C)cn1C  > 100 µM
18  CC(C)CCNC(=O)c1ccc(CNC(=O)/C=C/c2csc(-c3ccccc3)n2)cc1  > 100 µM
19  COc1ccc(C(=O)/C=C/c2ccc(OCC(=O)O)cc2)cc1  > 100 µM
20  O=C1/C(=C/c2ccc(Cl)cc2)CN(Cc2cn(CCNc3ccnc4cc(Cl)ccc34)nn2)C/C1=C\c1ccc(Cl)cc1   1.44 µM
21       Cc1ccc(/C=C/C(=O)c2ccc(N)cc2)c(C)c1    3.4 µM
22          COC(=O)c1oc2c(O)c(OC)c(Br)cc2c1C   42.6 µM
23  COc1cc(/C=C/C(=O)C(C(=O)/C=C/c2ccc(OC(=O)CCNc3nnc(C)s3)c(OC)c2)C(=O)CCNc2nnc(C)s2)ccc1OC(=O)CCNc1nnc(C)s1   5.77 µM
24               O=C1Nc2ccccc2/C1=C/c1ccccc1   31.2 µM
25  O=C(O)CSc1nnc(CCCCCCCCc2nnc(SCC(=O)O)o2)o1  > 100 µM
26  COc1cc(S(=O)(=O)Nc2ccc(-c3csc(N4C(=O)C(C)SC4c4ccccc4O)n3)cc2)ccc1Cl (centres undefined)  > 100 µM
27  COc1ccc(Cn2cc3c(c2-c2ccc(O)cc2)CCc2cnoc2-3)cc1   26.7 µM
28  O=c1[nH]ccc2nc(-c3ccc(CN4CCC(c5nc(-c6ccccn6)n[nH]5)CC4)cc3)c(-c3ccccc3)cc12     30 µM
